Test system: U2OS
Assay: Multiplex assay against U2OS
Format: toxicity, cell-based
Settings: human, 12 h, 10 µM, compound concentration 10 uM, replicate 2
Recorded Population Hoechst High Intensity Objects (%), one value per entry.
parameter: Population Hoechst High Intensity Objects (%)

INSERT INTO measurements (smiles_string, reported_result) VALUES
  ('CCOC(=O)CCNc1cc(N2CCc3ccccc3CC2)nc(-c2ccccn2)n1', 9),
  ('NC(=O)c1ccc2nc(-c3ccc(C4(N)CCC4)cc3)c(-c3ccccc3)n2n1', 4),
  ('N#Cc1cccc(C(=O)Nc2cc(-c3ccccc3)nn2-c2ccccc2)c1', 9),
  ('Cc1ccc(NC(=O)Nc2cc(C(F)(F)F)ccc2F)cc1Nc1ccc2c(c1)NC(=O)/C2=C\c1ccc[nH]1', 11),
  ('CN(c1cc(C(F)(F)F)nc(OCCC(=O)O)n1)c1cccc2c1CCC2', 14),
  ('CC(C)c1cc(Nc2nc(N3CCC[C@H](N)C3)ncc2C(N)=O)cc(C(C)C)n1', 14),
  ('Oc1cccc(-c2nc(N3CCOCC3)c3oc4ncccc4c3n2)c1', 5),
  ('CC[C@@]1(O)C(=O)OCc2c1cc1n(c2=O)Cc2cc3ccccc3nc2-1', 19),
  ('Cc1c(Nc2ccc(S(=O)(=O)N3CCN(C)CC3)cc2F)nc2ccc(Nc3cnn(C4CC4)c3)cn2c1=O', 15);
